Tgt: fixed activated platelets (Homo sapiens, UniProt P05106+P08514)
Assay summary: Platelet Aggregation Assay (fibrinogen-mediated aggregation of fixed-activated platelets)
Assay type: cell-based
Run conditions: read-out: Inhibition of Fibrinogen Mediated Platelet Aggregation % inhibition at 25 μM
Here, each record is paired with measured inhibition at 25 µM data.
Measure: inhibition at 25 µM (%)

INSERT INTO results (compound, measure, unit_spec, recorded_result) VALUES
  ('CC(C)C[C@H](NC(=O)[C@H](CC(=O)O)NC(=O)CN(C)C(=O)CCCCCNC(=N)N)C(=O)O', 'inhibition at 25 µM', '%', 88),
  ('CC(C)[C@H](NC(=O)[C@H](CC(=O)O)NC(=O)CN(C)C(=O)CCCCCn1ccnc1)C(=O)O', 'inhibition at 25 µM', '%', 94),
  ('CCCCOC(=O)[C@@H](NC(=O)[C@H](CC(=O)O)NC(=O)CN(C)C(=O)CCCCCNC(=N)N)C(C)C', 'inhibition at 25 µM', '%', 90),
  ('CCC(C)C(CNC(=O)[C@H](CC(=O)O)NC(=O)CCCCCCCCNC(=N)N)C(=O)N[C@@H](CCCNC(=N)N)C(=O)O (some centres unmarked)', 'inhibition at 25 µM', '%', 89),
  ('N=C(N)NCCCCCCCCC(=O)N[C@@H](CC(=O)O)C(=O)NCCCCNC(=N)N', 'inhibition at 25 µM', '%', 84);

====

Tgt: thrombin-stimulated platelets (Homo sapiens, UniProt P05106+P08514)
Sequence (P08514 32-1039): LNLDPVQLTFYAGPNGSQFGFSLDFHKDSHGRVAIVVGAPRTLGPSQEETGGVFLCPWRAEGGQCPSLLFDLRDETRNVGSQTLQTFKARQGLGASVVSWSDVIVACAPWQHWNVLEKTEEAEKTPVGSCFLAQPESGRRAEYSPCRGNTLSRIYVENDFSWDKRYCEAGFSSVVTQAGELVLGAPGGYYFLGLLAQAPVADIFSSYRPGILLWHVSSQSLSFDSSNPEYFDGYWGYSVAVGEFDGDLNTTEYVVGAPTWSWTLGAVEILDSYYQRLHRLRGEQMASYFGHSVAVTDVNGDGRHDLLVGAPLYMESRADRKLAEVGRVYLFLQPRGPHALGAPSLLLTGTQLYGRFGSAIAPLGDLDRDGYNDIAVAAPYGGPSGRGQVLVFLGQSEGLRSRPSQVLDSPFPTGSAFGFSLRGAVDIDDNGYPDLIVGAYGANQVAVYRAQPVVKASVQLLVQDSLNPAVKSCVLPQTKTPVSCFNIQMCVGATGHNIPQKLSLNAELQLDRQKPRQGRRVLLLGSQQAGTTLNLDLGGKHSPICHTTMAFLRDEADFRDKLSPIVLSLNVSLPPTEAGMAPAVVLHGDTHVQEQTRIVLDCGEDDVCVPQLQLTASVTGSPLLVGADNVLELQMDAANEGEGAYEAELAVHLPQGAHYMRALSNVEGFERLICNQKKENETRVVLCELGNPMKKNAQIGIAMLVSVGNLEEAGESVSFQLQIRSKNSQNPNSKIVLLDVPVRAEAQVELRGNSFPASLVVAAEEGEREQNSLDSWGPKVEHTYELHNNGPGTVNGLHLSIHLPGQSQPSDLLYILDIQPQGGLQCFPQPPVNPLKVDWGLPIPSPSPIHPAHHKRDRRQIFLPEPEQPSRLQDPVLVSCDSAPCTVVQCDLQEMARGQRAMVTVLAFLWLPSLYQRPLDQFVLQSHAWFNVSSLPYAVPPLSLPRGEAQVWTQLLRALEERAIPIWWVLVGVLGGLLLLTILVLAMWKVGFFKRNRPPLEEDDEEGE
Sequence (P05106 27-788): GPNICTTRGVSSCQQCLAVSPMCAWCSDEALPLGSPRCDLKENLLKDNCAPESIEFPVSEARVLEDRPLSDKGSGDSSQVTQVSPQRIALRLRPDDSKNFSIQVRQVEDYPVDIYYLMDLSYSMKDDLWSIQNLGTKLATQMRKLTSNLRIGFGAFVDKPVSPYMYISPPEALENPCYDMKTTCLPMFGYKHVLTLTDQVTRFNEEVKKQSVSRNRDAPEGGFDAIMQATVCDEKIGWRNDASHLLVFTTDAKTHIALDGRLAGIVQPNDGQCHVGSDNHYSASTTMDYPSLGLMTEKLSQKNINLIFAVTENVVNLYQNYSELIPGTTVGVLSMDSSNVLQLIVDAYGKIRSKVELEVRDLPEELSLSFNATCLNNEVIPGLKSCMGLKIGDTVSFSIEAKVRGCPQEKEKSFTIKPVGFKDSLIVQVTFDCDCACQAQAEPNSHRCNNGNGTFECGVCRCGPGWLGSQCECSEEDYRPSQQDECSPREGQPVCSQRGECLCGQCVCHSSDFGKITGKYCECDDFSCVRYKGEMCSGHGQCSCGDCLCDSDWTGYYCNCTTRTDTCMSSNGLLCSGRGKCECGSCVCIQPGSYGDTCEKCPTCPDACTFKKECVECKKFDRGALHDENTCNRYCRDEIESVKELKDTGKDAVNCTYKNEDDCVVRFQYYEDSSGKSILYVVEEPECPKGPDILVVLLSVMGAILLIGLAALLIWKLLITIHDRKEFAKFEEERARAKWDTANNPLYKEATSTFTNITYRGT
Assay summary: Fibrinogen-Binding Assay (125I-fibrinogen binding to platelets)
Run conditions: 125I-fibrinogen 0.176 μmol/liter, thrombin-stimulated platelets; read-out: Inhibition of 125I-Fibrinogen Binding to Platelets IC50
pIC50: −log10 of the molar value. Residues, ends and D or L forms follow the SMILES beside them.
Measure: pIC50

INSERT INTO assay_data (molecule, qualifier_sign, recorded_result) VALUES
  ('N=C(N)NCCC[C@H](N)C(=O)NCC(=O)N[C@@H](CC(=O)O)C(=O)OCc1ccccc1', '=', 4.60),
  ('CC(C)C[C@@H](CCC(=O)O)NC(=O)[C@H](CC(=O)O)NC(=O)CCCCCCCCNC(=N)N', '=', 4.27),
  ('CC(C)[C@H](NC(=O)[C@H](CC(=O)O)NC(=O)CCCCCCCCCCCNC(=N)N)C(=O)O', '=', 5.15),
  ('CCN(CC(=O)N[C@@H](CC(=O)O)C(=O)NC(CC)(CC)C(=O)O)C(=O)CCCCCNC(=N)N', '=', 5.30),
  ('CC(C)[C@H](NC(=O)[C@H](CC(=O)O)NC(=O)CCCCCCCCCn1ccnc1)C(=O)O', '=', 4.70),
  ('CCC(CC)(NC(=O)[C@H](CC(=O)O)NC(=O)CCCCCCCCNC(=N)N)C(=O)N[C@@H](CCCNC(=N)N)C(=O)O', '=', 4.40),
  ('N=C(N)NCCCCCCCCC(=O)N[C@@H](CC(=O)O)C(=O)NCCCCNC(=N)N', '=', 6.28),
  ('CC[C@H](C)[C@H](NC(=O)[C@H](CCCNC(=N)N)NC(=O)[C@H](CC(=O)O)NC(=O)CCCCCCCCNC(=N)N)C(=O)O', '=', 5.92),
  ('CCCC(C)CN(CC(=O)N[C@@H](CC(=O)O)C(=O)N[C@H](C(=O)O)C(C)C)C(=O)CCCCCNC(=N)N (stereo partly shown)', '<', 3.70),
  ('N=C(N)NCCCCCCCCC(=O)N[C@@H](CC(=O)O)C(=O)NC(Cc1ccccc1)(Cc1ccccc1)C(=O)O', '<', 3.70),
  ('CC(C)[C@H](NC(=O)[C@H](CC(=O)O)NC(=O)CN(C)C(=O)CCCCCNC(=N)N)C(=O)O', '=', 6.49),
  ('CC[C@@H](C)[C@@H](NC(=O)[C@H](CC(=O)O)NC(=O)CCCCCCCCNC(=N)N)C(=O)N[C@@H](CCCNC(=N)N)C(=O)O', '=', 4.99),
  ('CC(C)[C@H](NC(=O)CNC(=O)CNC(=O)[C@@H](N)CCCNC(=N)N)C(=O)O [L-arginyl glycyl glycyl-L-valine] (H-RGGV-OH)', '<', 3.70),
  ('CC(C)[C@H](NC(=O)[C@H](CC(=O)O)NC(=O)CNC(=O)[C@@H](N)CCCCN)C(=O)O [L-Lysylglycyl-L-aspartyl-L-valine] (H-KGDV-OH)', '=', 4.22),
  ('CC(C)C[C@H](NC(=O)[C@H](CC(=O)O)NC(=O)CN(C)C(=O)CCCCCNC(=N)N)C(=O)O', '=', 7.05),
  ('N=C(N)NCCCCCCCC(=O)N[C@@H](CC(=O)O)C(=O)NCCCCNC(=N)N', '=', 6.00);

====

Tgt: fixed activated platelets (Homo sapiens, UniProt P05106+P08514)
Assay summary: Platelet Aggregation Assay (fibrinogen-mediated aggregation of fixed-activated platelets)
Assay type: cell-based
Run conditions: fixed activated platelets, human fibrinogen 250 μg/ml; read-out: Inhibition of Fibrinogen Mediated Platelet Aggregation IC50
pIC50: −log10 of the molar value. Residues, ends and D or L forms follow the SMILES beside them.
Measure: pIC50

INSERT INTO results (compound, recorded_result) VALUES
  ('CC(C)CC(CCCN)(NC(=O)[C@H](CC(=O)O)NC(=O)CCCCCCCCNC(=N)N)C(=O)O (stereo partly drawn)', '< 4.60'),
  ('CC(C)[C@H](NC(=O)CNC(=O)CNC(=O)[C@@H](N)CCCNC(=N)N)C(=O)O [L-arginyl glycyl glycyl-L-valine] (H-RGGV-OH)', '< 4.00'),
  ('CC(C)[C@H](NC(=O)[C@H](CC(=O)O)NC(=O)CCCCCCn1ccnc1)C(=O)O', '< 4.60');

====

List of inhibition at 25 µM values.
Tgt: fixed activated platelets (Homo sapiens, UniProt P05106+P08514)
Assay summary: Platelet Aggregation Assay (fibrinogen-mediated aggregation of fixed-activated platelets)
Type: cell-based
Run conditions: read-out: Inhibition of Fibrinogen Mediated Platelet Aggregation % inhibition at 25 μM
Non-standard residues stand in square brackets, D forms with d. Residues, ends and D or L forms follow the SMILES beside them. Aun = NCCCCCCCCCCC(=O)O
Measure: inhibition at 25 µM (%)

INSERT INTO measurements (compound, recorded_result) VALUES
  ('N=C(N)NCCCCCCCCC(=O)N[C@@H](CC(=O)O)C(=O)N[C@@H](Cc1ccccc1)C(=O)N[C@@H](CCCNC(=N)N)C(=O)O', 98),
  ('CC(C)CN(CC(=O)N[C@@H](CC(=O)O)C(=O)N[C@H](C(=O)O)C(C)C)C(=O)CCCCCNC(=N)N', 86),
  ('CN(CC(=O)N[C@@H](CC(=O)O)C(=O)N[C@@H](CCCCN)C(=O)O)C(=O)CCCCCNC(=N)N', 86),
  ('CC(C)[C@H](NC(=O)[C@H](CC(=O)O)NC(=O)CNC(=O)CCCCCn1ccnc1)C(=O)O', 67),
  ('CCN(CC(=O)N[C@@H](CC(=O)O)C(=O)N[C@@H](CCCNC(=N)N)C(=O)O)C(=O)CCCCCNC(=N)N', 97),
  ('CC(C)[C@H](NC(=O)[C@H](CC(=O)O)NC(=O)CNC(=O)CCCCCNC(=N)N)C(=O)O', 90),
  ('N=C(N)NCCCCCCCCC(=O)N[C@@H](CC(=O)O)C(=O)N[C@@H](CCCNC(=N)N)C(=O)O', 97),
  ('CC(C)[C@H](NC(=O)[C@H](CC(=O)O)NC(=O)CCCCCCCCCCN)C(=O)O [11-Aminoundecanoyl-L-aspartyl-L-valine] (H-[Aun]-Asp-Val-OH)', 0.98),
  ('CC(C)[C@H](NC(=O)[C@H](CC(=O)O)NC(=O)CN(C)C(=O)CCCCCNC(=N)N)C(=O)O', 97),
  ('CC[C@H](C)[C@H](NC(=O)[C@H](CCCNC(=N)N)NC(=O)[C@H](CC(=O)O)NC(=O)CCCCCCCCNC(=N)N)C(=O)O', 93),
  ('N=C(N)NCCCCCCCC(=O)N[C@@H](CC(=O)O)C(=O)NCCCCNC(=N)N', 91),
  ('CC(C)(C)[C@H](NC(=O)[C@H](CC(=O)O)NC(=O)CCCCCCCCNC(=N)N)C(=O)N[C@@H](CCCNC(=N)N)C(=O)O', 96),
  ('CC[C@H](C)[C@H](NC(=O)[C@H](CC(=O)O)NC(=O)CCCCCCCCNC(=N)N)C(=O)N[C@@H](CCCNC(=N)N)C(=O)O', 94),
  ('CC(C)C[C@H](NC(=O)[C@H](CC(=O)O)NC(=O)CCCCCCCCNC(=N)N)C(=O)N[C@@H](CCCNC(=N)N)C(=O)O', 96),
  ('CC(C)[C@H](NC(=O)[C@H](CC(=O)O)NC(=O)CNC(=O)CCCCn1ccnc1)C(=O)O', 58),
  ('N=C(N)NCCCCCCCCC(=O)N[C@@H](CC(=O)O)C(=O)NCCC(=O)N[C@@H](CCCNC(=N)N)C(=O)O', 93),
  ('CC[C@@H](C)[C@@H](NC(=O)[C@H](CC(=O)O)NC(=O)CCCCCCCCNC(=N)N)C(=O)N[C@@H](CCCNC(=N)N)C(=O)O', 75),
  ('CC(C)[C@H](NC(=O)[C@H](CC(=O)O)NC(=O)/C=C/CCCCCCNC(=N)N)C(=O)O', 24),
  ('CC(C)[C@H](NC(=O)[C@H](CC(=O)O)NC(=O)CN(C(=O)CCCCCNC(=N)N)C1CCCC1)C(=O)O', 76),
  ('CC(C)C[C@@H](CCCNC(=N)N)NC(=O)[C@H](CC(=O)O)NC(=O)CCCCCCCCNC(=N)N', 94),
  ('CC(C)[C@H](NC(=O)[C@H](CC(=O)O)NC(=O)CCCCCCCCCNC(=N)N)C(=O)O', 77),
  ('CC(C)[C@H](NC(=O)[C@H](CC(=O)O)NC(=O)CCCCCCCCNC(=N)N)C(=O)N[C@@H](CCCNC(=N)N)C(=O)O', 98),
  ('C[C@H](NC(=O)[C@H](CC(=O)O)NC(=O)CCCCCCCCNC(=N)N)C(=O)N[C@@H](CCCNC(=N)N)C(=O)O', 89),
  ('CC[C@@H](C)[C@H](CC(=O)NCCCCNC(=N)N)NC(=O)[C@H](CC(=O)O)NC(=O)CCCCCCCCNC(=N)N', 94);
